# measurementDescription: Inhibition of SARS-CoV-2 3CL protease
# Parameters: species or system Severe acute respiratory syndrome coronavirus 2
recordedEndpoint: Ki (nM)
Give bare numbers, in nM.

In: Provide Ki value for the following molecule: "COc1cccc2[nH]c(C(=O)N[C@@H](CC(C)C)C(=O)N[C@@H](C[C@@H]3CCNC3=O)C(=O)COP(=O)(O)O)cc12"
Out: 0.27

----------
# Test system: Severe acute respiratory syndrome coronavirus 2
# measurementDescription: Inhibition of SARS-CoV-2 3CL protease at 50 uM using DABCYL-KTSAVLQ-SGFRKME-EDANS as substrate preincubated with enzyme for 30 mins followed by substrate addition and measured after 1 hr by fluorescence spectrophotometry relative to control
# runConditions: time 1.5 hrs
recordedEndpoint: inhibition

>>> df
                                   compound  observedvalue
0  C=CS(=O)(=O)N(c1ccc(C(C)(C)C)cc1)C(C(=O)NC1CCCCC1)c1cccnc1 (stereo not given)          > 95%
1  CC#CC(=O)N(c1ccc(C(C)(C)C)cc1)C(C(=O)NC1CCCCC1)c1csc2ccccc12 (stereo not given)            57%
2  CC#CC(=O)N(c1ccc(OC)cc1)C(C(=O)NC1CCCCC1)c1cccnc1 (stereo not given)            39%
3  CC#CC(=O)N(c1ccc(C(C)(C)C)cc1)C(C(=O)NC1CCCCC1)c1cccnc1 (stereo not given)          > 95%
4  CC(C)(C)c1ccc(N(C(=O)C2=CCCC2)C(C(=O)NC2CCCCC2)c2ccncc2)cc1 (stereo not given)            19%
5  CC#CC(=O)NC(C(=O)NC1CCCCC1)c1cccnc1 (stereo not given)            10%

Hey, can you go through the list below and give me inhibition for every item?
1. CC#CC(=O)N(c1ccc(C(C)(C)C)cc1)C(CN1CC(=O)NC1=O)C(=O)NC1CCCCC1 (stereo not given)
2. CC#CC(=O)N(c1ccc(C(C)(C)C)cc1)C(C(=O)NC1CCCCC1)c1cnc2ccccc2c1 (stereo not given)
3. CC(C)(C)c1ccc(N(C(=O)CF)C(C(=O)NC2CCCCC2)c2cccnc2)cc1 (stereo not given)
4. CC#CC(=O)N(c1ccc(C(C)(C)C)cc1)C(C(=O)NC1CCCCC1)c1nc2ccccc2s1 (stereo not given)
5. CC(C)(C)c1ccc(N(C(=O)C(=O)C(F)(F)F)C(C(=O)NC2CCCCC2)c2cccnc2)cc1 (stereo not given)

Out:
["10%", "80%", "30%", "54%", "77%"]

Hey, can you go through the list below and give me inhibition for every item?
1. CC(C)(C)c1ccc(N(C(=O)C2=CCCC2)C(C(=O)NC2CCCCC2)c2cnc[nH]2)cc1 (stereo not given)
2. CC(C)(C)c1ccc(N(C(=O)CCl)C(C(=O)NC2CCCCC2)c2ccncc2)cc1 (stereo not given)
3. C=CS(=O)(=O)N(c1ccc(C(C)(C)C)cc1)C(C(=O)NCCc1ccc(OC)cc1)c1cccnc1 (stereo not given)

Out:
1: 24%; 2: > 95%; 3: > 95%
